# target: murine CDH6 protein (mCDH6 ECD-his) (mouse) (UniProt P97326)
# Sequence (P97326 19-615 limits assumed, form in doubt): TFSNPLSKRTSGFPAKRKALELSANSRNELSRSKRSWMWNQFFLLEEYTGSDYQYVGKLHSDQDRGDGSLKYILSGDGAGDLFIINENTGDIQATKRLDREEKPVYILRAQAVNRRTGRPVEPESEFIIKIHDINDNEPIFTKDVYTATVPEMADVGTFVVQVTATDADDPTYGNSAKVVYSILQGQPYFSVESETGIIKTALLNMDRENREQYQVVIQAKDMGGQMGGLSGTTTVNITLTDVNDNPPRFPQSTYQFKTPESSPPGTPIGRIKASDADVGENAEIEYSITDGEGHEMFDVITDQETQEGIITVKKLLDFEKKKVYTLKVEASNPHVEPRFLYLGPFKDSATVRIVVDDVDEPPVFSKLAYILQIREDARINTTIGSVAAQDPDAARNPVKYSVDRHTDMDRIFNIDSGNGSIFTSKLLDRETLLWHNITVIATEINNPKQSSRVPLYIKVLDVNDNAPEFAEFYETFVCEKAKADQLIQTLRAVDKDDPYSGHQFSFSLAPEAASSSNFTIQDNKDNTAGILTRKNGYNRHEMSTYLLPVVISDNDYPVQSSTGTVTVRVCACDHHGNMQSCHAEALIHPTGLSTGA
# testSummary: ELISA, antigen coated
Listed here: items and their measured EC50.
quantityMeasured: EC50 (nM)

* CHI-CDH6-3 (antibody, human IgG1, kappa, V domains shown) VH: QVQLQQPGAELVKPGASVKLSCKASGYTFTSYWIHWVKQRPGQGLEWIGEINPSNGVTNCNENFKSKATLTVDKSSSTAYMQLSSLTSEDSAVYYCTIPNLLWWYFDVWGAGTTVTVSS VL: DIQMTQSPASLSVSVGETVTITCRASENIYSNLAWYQQKQGKSPQLLVYEATNLADGVPSRFSGSGSGTQYSLKINSLQSEDFGSYYCQHFWGTLWTFGGGTKLEIKR | 0.051
* CHI-CDH6-8 (antibody, human IgG1, kappa, V domains shown) VH: EVQLQQSGPELVKPGDSVKMSCKASGYTFTDYYMAWIKQNHGKSLEWIGYIYPNNGGTDYNQKFRGKATLTVDKSSSAAYMELHSLTSEDSAVYYCAREIGTLYGDYYAMDYWGQGTSVTVSS VL: DIQMTQSPASLSASVGETVTITCRASENIDSYLAWYQQKQGKSPQLLVYTATLLADGVPSRFSGSGSGTQYSLKINSLQSEDVARYYCQHYYSTPPTFGSGTKLEIKR | 0.028
* CHI-CDH6-11 (antibody, human IgG1, kappa, V domains shown) VH: QIQLQQSGPELVKPGASVRISCKASGYTFTDYYITWVKLRPGQGLEWIGWIYPGSVNIKYNEKFKGKATLTVDTSSSTAYMQLNSLTSEDSAVYFCARGGYSWFPYWGQGTLVTVSA VL: NIVMTQSPKSMSMSVGERVTLSCKASENVHTYVSWYQQKPEQSPKLLFYGASTRNTGVPDRFTGSGSATDFTLTISSVQAEDLADYYCGQSYSYPYTFGSGTKLEIKR | 0.04
* CHI-CDH6-13 (antibody, human IgG1, kappa, V domains shown) VH: DVQLQESGPGLVKPSQSLSLTCSVTGYSITKDSYWNWIRQFPGSKLEWMGFISYDGSRHYNPSLKNRISITRDTSKNQFFLQLNSVTTEDTATYYCARRDYADYWGQGTTLTVSS VL: QIVLTQSPALMSAFPGEKVTMTCSATSSVSYIYWYQQKPRSSPKPWIYLTSNLASGVPARFSGSGSGTSYSLTINSLEAEDAATYYCQQWSSIPYTFGGGTKLEIKR | 0.016
